The origin of these recorded values is patent US9546175B2.

# experimental protocol: Pharmacokinetic analysis in mice, plasma and brain levels by LC-MS/MS
# Format: in vivo
# experimental context: mouse, male C57BL/6 mice, 10 mg/kg oral (PO), 0.25-2 h, read-out: B/P ratio (Brain AUC(0-2h)/Plasma AUC(0-2h))
Provide the recorded Kp for the entries that follow.

The molecule `CC(C)Cn1c(=O)n(C)c(=O)c2c(Nc3ccccc3)n(Cc3ccc(S(N)(=O)=O)cc3)nc21` showed Kp equal to ≤ 0.05

# input for lookup
The molecule `CC(C)Cn1c(=O)n(C)c(=O)c2c(Nc3ccccc3)n(Cc3ccc(C(=O)O)cc3)nc21` showed Kp equal to ≤ 0.05
